Experimental System: Muscarinic acetylcholine receptor M1 (Homo sapiens, UniProt P11229)
Sequence (P11229 whole entry): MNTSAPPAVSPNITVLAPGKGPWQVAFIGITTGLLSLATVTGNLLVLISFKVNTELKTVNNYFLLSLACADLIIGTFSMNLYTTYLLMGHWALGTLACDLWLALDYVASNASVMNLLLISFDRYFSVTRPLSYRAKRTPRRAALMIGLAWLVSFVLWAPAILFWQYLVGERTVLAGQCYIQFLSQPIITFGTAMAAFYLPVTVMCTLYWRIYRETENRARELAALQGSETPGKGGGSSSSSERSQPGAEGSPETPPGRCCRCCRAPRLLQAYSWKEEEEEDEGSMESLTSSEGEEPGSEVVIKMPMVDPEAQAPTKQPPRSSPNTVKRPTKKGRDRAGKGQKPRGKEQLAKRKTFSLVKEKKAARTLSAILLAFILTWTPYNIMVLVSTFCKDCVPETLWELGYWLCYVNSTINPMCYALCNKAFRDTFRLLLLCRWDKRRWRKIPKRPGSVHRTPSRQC
Procedure Summary: Positive allosteric modulation of human muscarinic acetylcholine M1 receptor expressed in CHO cells assessed as potentiation of acetylcholine-induced calcium mobilization
Format: functional, cell-based
Assay Conditions: read-out: EC50
So I've got a bunch of compounds here, and I need their EC50 values.
Answers are plain numbers, in µM.

Compound	EC50 / µM
NC1CCCCC1NC(=O)C1CN(Cc2ccc(-n3cccn3)cc2)c2ccccc2O1 (stereo not drawn)	2.3

Consider the following items and state reported EC50 for each.
1. O=C(N[C@H]1CCCC[C@@H]1O)C1CN(Cc2ccc(C3CC3)nc2)c2ccccc2O1 (stereo partly drawn)
2. O=C(N[C@H]1CCC[C@@H]1O)C1CN(Cc2ccc(-n3cccn3)cc2)c2ccccc2O1 (stereo partly drawn)
3. O=C(N[C@H]1CCCC[C@@H]1O)C1CN(Cc2ccc(-n3cccn3)cc2)c2ccc(F)cc2O1 (stereo partly drawn)
4. O=C(N[C@H]1CCCC[C@@H]1O)C1CN(Cc2ccc(-n3cccc3)cc2)c2ccccc2O1 (mixture of isomers)
5. CC(O)(CNC(=O)C1CN(Cc2ccc(-n3cccn3)cc2)c2ccccc2O1)C1CC1 (stereo not drawn)
6. O=C(N[C@H]1CCCC[C@@H]1O)C1CN(Cc2ccc(-n3cccn3)cc2)c2cc(Cl)ccc2O1 (mixture of isomers)
7. O=C(N[C@H]1CCCC[C@@H]1O)C1CN(Cc2ccc(Cl)nc2)c2ccccc2O1 (stereo partly drawn)
8. O=C(N[C@H]1CCCC[C@@H]1O)C1CN(Cc2ccc(-n3cccn3)cc2)c2cccc(F)c2O1 (stereo partly drawn)

1. 2.5
2. 1.2
3. 2.2
4. 2.1
5. 1.9
6. 2.8
7. 7.6
8. 0.14

Consider the following items and state reported EC50 for each.
1. Cn1cc(-c2ccc(CN3CC(C(=O)N[C@H]4CCCC[C@@H]4O)Oc4ccccc43)cn2)cn1 (stereo partly drawn)
2. O=C(Nc1ncccc1F)C1CN(Cc2ccc(-n3cccn3)cc2)c2ccccc2O1 (stereo not drawn)
3. O=C(N[C@H]1CCCC[C@@H]1O)C1CN(Cc2ccc(-n3cccn3)cc2)c2cc(F)ccc2O1 (stereo partly drawn)
4. O=C(N[C@H]1CCCC[C@@H]1O)C1CN(Cc2ccc(C(F)(F)F)nc2)c2ccccc2O1 (stereo partly drawn)

1. 0.22
2. 2.3
3. 0.32
4. 3.7

Consider the following items and state reported EC50 for each.
1. Cc1ccn(-c2ccc(CN3CC(C(=O)N[C@H]4CCCC[C@@H]4O)Oc4ccccc43)cn2)n1 (stereo partly drawn)
2. COc1cccnc1NC(=O)C1CN(Cc2ccc(-n3cccn3)cc2)c2ccccc2O1 (stereo not drawn)
3. O=C(NCC(O)C(F)(F)F)C1CN(Cc2ccc(-n3cccn3)cc2)c2ccccc2O1 (stereo not drawn)

0.67
1.7
2.2

Source listed as ChEMBL document CHEMBL4118174.
